- Test system: Hepatic stellate cell strain LX-2
- MEASUREMENT_DESCRIPTION: In vitro effect on expression of LX-2 cell activation marker α-SMA (Western Blot, β-actin reference)
- Format: cell-based
- ASSAY_CONTEXT: LX-2 cells, 10.0 uM, 48 hours, negative control = 100%
Starred links: 1 amine or outer side, 2 acyl side, 3 side chain; linkers in the order of their positions; H or OH if unused. Non-standard residues stand in square brackets, D forms with d. Groups on a side chain read outwards from the residue. Primed or numbered codes have the meaning given here. No end group written: not given here. *: point of attachment. C18 diacid = O=C(O)CCCCCCCCCCCCCCCCC(=O)*; γGlu = O=C(O)[C@H](CCC(=O)[*:2])N[*:1]; Palmitoyl = CCCCCCCCCCCCCCCC(=O)*; PEG2′ = not defined here
READOUT_NAME: Relative expression of α-SMA (α-SMA/β-actin, %)
Unit % implied. Number only.

In the examples that follow, each entry is paired with its recorded Relative expression of α-SMA (α-SMA/β-actin, %).
SUBSTANCE	MEASURED_TARGET	READING_UNIT	RECORDED_RESULT
His-(D-Ser)-Gln-Gly-Thr-Phe-Thr-Ser-Asp-Tyr-Ser-Lys-Tyr-Leu-Asp-Lys(PEG2-PEG2-γGlu-CO(CH2)14CH3)-Arg-Arg-Ala- Gln-Asp-Phe-Val-Gln-Trp-Leu-Leu-Asn-Thr-Gly-Gly-Pro-Ser-Ser-Gly-Ala-Pro-Pro-Pro-Ser-NH2 (H[dS]QGTFTSDYSKYLDK([PEG2′-PEG2′-γGlu-Palmitoyl])RRAQDFVQWLLNTGGPSSGAPPPS-NH2) [Compound 23]	Hepatic stellate cell strain LX-2	%	36.15
His-(D-Ser)-Gln-Gly-Thr-Phe-Thr-Ser-Asp-Tyr-Ser-Lys-Tyr-Leu-Asp-Lys(PEG2-PEG2-yGlu-CO(CH2)16CO2H)-Arg-Arg- Ala-Gln-Asp-Phe-Val-Gln-Trp-Leu-Leu-Asn-Thr-Gly-Gly-Pro-Ser -Ser-Gly-Ala-Pro-Pro-Pro-Ser-NH2 (H[dS]QGTFTSDYSKYLDK([PEG2′-PEG2′-γGlu-C18 diacid])RRAQDFVQWLLNTGGPSSGAPPPS-NH2) [Compound 22]	Hepatic stellate cell strain LX-2	%	48.76

Consider now this further substance.
// fetch Hepatic stellate cell strain LX-2 Relative expression of α-SMA (α-SMA/β-actin, %) for His-(D-Ser)-Gln-Gly-Thr-Phe-Thr-Ser-Asp-Tyr-Ser-Lys-Tyr-Leu-Asp-Lys-Lys(PEG2-PEG2-γGlu-CO(CH2)16CO2H)-Ala- Ala-His-Asp-Phe-Val-Glu-Trp-Leu-Leu-Arg-Thr-Gly-Gly-Pro-Ser-Ser-Gly-Ala-Pro-Pro-Pro-Ser-NH2 [Compound 7]
46.53

* * *

- System: Hepatic stellate cell strain LX-2
- MEASUREMENT_DESCRIPTION: In vitro effect on expression of LX-2 cell activation marker α-SMA (Western Blot, β-actin reference)
- Assay type: cell-based
- ASSAY_CONTEXT: LX-2 cells, 10.0 uM, 48 hours, negative control = 100%
Starred links: 1 amine or outer side, 2 acyl side, 3 side chain; linkers in the order of their positions; H or OH if unused. Non-standard residues stand in square brackets, D forms with d. Groups on a side chain read outwards from the residue. Primed or numbered codes have the meaning given here. No end group written: not given here. *: point of attachment. C18 diacid = O=C(O)CCCCCCCCCCCCCCCCC(=O)*; C16 diacid = O=C(O)CCCCCCCCCCCCCCC(=O)*; γGlu = O=C(O)[C@H](CCC(=O)[*:2])N[*:1]; Stearoyl = CCCCCCCCCCCCCCCCCC(=O)*; Palmitoyl = CCCCCCCCCCCCCCCC(=O)*; PEG2′ = not defined here; Aib = CC(C)(N)C(=O)O
# cutoff 40% applies to Relative expression of α-SMA (α-SMA/β-actin, %); >= gives satisfied, < gives not satisfied

Illustrative cases are given below, each with its answer.
SUBSTANCE	MEASURED_TARGET	ANSWER_LABEL
His-(D-Ser)-Gln-Gly-Thr-Phe-Thr-Ser-Asp-Tyr-Ser-Lys-Tyr-Leu-Asp-Lys(PEG2-PEG2-γGlu-CO(CH2)16CH3)-Arg-Arg-Ala- Gln-Asp-Phe-Val-Gln-Trp-Leu-Met-Asn-Thr-Gly-Gly-Pro-Ser-Ser-Gly-Ala-Pro-Pro-Pro-Ser-NH2 (H[dS]QGTFTSDYSKYLDK([PEG2′-PEG2′-γGlu-Stearoyl])RRAQDFVQWLMNTGGPSSGAPPPS-NH2) [Compound 19]	Hepatic stellate cell strain LX-2	satisfied
His-Aib-Gln-Gly-Thr-Phe-Thr-Ser-Asp-Lys(PEG2-PEG2-yGlu- CO(CH2)14CH3)-Ser-Lys-Tyr-Leu-Asp-Glu-Arg-Arg-Ala-Gln- Asp-Phe-Val-Gln-Trp-Leu-Leu-Asp-Gly-Gly-Gly-Pro-Ser-Ser-Gly-Ala-Pro-Pro-Pro-Ser-NH2 (H[Aib]QGTFTSDK([PEG2′-PEG2′-γGlu-Palmitoyl])SKYLDERRAQDFVQWLLDGGGPSSGAPPPS-NH2) [Compound 6]	Hepatic stellate cell strain LX-2	satisfied
His-Aib-Gln-Gly-Thr-Phe-Thr-Ser-Asp-Lys(PEG2-PEG2-γGlu- CO(CH2)14CO2H)-Ser-Lys-Tyr-Leu-Asp-Glu-Arg-Arg-Ala- Gln-Asp-Phe-Val-Gln-Trp-Leu-Leu-Asp-Gly-Gly-Gly-Pro-Ser-Ser-Gly-Ala-Pro-Pro-Pro-Ser-NH2 (H[Aib]QGTFTSDK([PEG2′-PEG2′-γGlu-C16 diacid])SKYLDERRAQDFVQWLLDGGGPSSGAPPPS-NH2) [Compound 3]	Hepatic stellate cell strain LX-2	satisfied

Dear colleague, could you confirm whether His-(D-Ser)-Gln-Gly-Thr-Phe-Thr-Ser-Asp-Tyr-Ser-Lys-Tyr-Leu-Asp-Glu-Lys-Ala-Ala-Lys(PEG2-PEG2-yGlu- CO(CH2)16CH3)-Glu-Phe-Ile-Glu-Trp-Leu-Leu-Arg-Gly-Gly- Gly-Pro-Ser-Ser-Gly-Ala-Pro-Pro-Pro-Ser-NH2 (H[dS]QGTFTSDYSKYLDEKAAK([PEG2′-PEG2′-γGlu-Stearoyl])EFIEWLLRGGGPSSGAPPPS-NH2) [Compound 11] has Relative expression of α-SMA (α-SMA/β-actin, %) at or above 40%?
not satisfied

Dear colleague, could you confirm whether His-(D-Ser)-Gln-Gly-Thr-Phe-Thr-Ser-Asp-Tyr-Ser-Lys-Tyr-Leu-Asp-Lys(PEG2-PEG2-CO(CH2)16CO2H)-Arg-Arg-Ala- Gln-Asp-Phe-Val-Gln-Trp-Leu-Met-Asn-Thr-Gly-Gly-Pro-Ser-Ser-Gly-Ala-Pro-Pro-Pro-Ser-NH2 (H[dS]QGTFTSDYSKYLDK([PEG2′-PEG2′-C18 diacid])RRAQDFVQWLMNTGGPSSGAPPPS-NH2) [Compound 18] has Relative expression of α-SMA (α-SMA/β-actin, %) at or above 40%?
satisfied
